Would you kindly list IC50 for each of these molecules?
Molecular target: FGFR1 (Homo sapiens)
Sequence (P11362 22-822): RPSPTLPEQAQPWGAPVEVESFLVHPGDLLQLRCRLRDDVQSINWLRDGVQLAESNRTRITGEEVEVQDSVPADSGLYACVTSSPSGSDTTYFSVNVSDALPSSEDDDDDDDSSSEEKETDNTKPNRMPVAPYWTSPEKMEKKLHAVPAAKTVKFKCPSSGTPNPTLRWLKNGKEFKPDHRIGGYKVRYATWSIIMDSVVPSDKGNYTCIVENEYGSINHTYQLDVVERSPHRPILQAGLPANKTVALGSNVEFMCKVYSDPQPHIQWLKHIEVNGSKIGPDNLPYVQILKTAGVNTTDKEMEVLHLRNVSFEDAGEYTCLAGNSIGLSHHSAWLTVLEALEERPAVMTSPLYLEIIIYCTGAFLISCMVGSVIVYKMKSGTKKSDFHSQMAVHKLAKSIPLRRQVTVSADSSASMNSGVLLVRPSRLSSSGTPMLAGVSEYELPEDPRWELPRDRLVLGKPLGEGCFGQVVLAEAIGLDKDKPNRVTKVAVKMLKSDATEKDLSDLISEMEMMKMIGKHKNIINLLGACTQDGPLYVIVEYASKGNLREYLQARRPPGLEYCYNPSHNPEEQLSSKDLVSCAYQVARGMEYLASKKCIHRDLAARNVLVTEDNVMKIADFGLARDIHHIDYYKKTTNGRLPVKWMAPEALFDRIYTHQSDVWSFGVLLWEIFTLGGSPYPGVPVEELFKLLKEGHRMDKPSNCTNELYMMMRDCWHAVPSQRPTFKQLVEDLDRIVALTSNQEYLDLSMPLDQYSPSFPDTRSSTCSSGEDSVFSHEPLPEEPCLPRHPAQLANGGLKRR

O=C(Nc1ccc(Oc2ncnc3[nH]ncc23)cc1)Nc1cccc(C(F)(F)F)c1 :: 2250 nM

Now for the molecule whose IC50 we want.
IN: Value wanted: IC50 (FGFR1 (Homo sapiens)) of entry CC(C)(C)c1cc(NC(=O)Nc2ccc(Oc3ncnc4[nH]ncc34)c(F)c2)no1
OUT: < 10000 nM

====

Let's go through some recorded pIC50 values for UniProtKB P04049 together.
Sequence (P04049 whole entry): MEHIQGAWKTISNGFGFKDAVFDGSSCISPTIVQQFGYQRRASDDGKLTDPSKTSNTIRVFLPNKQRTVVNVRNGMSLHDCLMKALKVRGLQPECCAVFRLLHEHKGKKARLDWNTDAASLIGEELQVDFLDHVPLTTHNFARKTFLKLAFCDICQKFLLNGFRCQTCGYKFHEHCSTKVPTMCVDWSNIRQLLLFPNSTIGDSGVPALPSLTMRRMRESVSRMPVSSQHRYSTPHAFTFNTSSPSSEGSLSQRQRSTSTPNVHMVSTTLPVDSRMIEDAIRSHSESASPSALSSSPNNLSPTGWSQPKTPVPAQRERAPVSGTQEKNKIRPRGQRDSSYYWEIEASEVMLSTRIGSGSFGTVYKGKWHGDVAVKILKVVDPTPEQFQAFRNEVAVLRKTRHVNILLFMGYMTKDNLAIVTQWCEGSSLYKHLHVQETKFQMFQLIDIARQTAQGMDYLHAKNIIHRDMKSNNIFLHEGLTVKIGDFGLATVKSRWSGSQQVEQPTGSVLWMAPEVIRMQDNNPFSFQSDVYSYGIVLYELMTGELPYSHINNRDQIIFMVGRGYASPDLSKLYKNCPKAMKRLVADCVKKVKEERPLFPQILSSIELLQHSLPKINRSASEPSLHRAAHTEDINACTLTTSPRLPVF
One number for each entry, as −log10 of the molar value.

Recorded results for 2 compounds are shown here.
CC(C)(C)c1cc(NC(=O)Nc2ccc(Oc3ncnc4[nH]ncc34)cc2)on1 [4a-25] :: 7.28
O=C(Nc1ccc(Oc2ncnc3[nH]ncc23)cc1)Nc1cccc(C(F)(F)F)c1 [4a-6] :: 7.09

Now for the compound whose pIC50 we want.
IN: For the compound shown here, O=C(Nc1ccc(Oc2ncnc3[nH]ncc23)cc1)Nc1ccc(Cl)c(C(F)(F)F)c1 [4a-2] , give the reported pIC50.
OUT: 7.14
